- Tested on: DU-145
- method: NCI tumour cell line growth inhibition, 48 h
Active and inactive are the calls of the source. Rule as the data show it: active = GI50 up to about 1.1 µM and inactive = higher.
# GI50 listing for each entry below

Solved cases (2 shown):
compound	GI50
COc1ccc(CC(COS(=O)(=O)c2ccc(C)cc2)NS(=O)(=O)c2ccc(C)cc2)cc1 (centres undefined)	10.8 µM (inactive)
O=C(O)CCc1nc(-c2ccccc2-n2cccc2)no1	> 100 µM (inactive)

GI50 for `Oc1ccc2c(c1)-c1c(c3ccccc3n1CCN1CCOCC1)CC2` ?
46 µM (inactive)

Let us now turn to `CC1(C)OP(=O)(O)C=C1Sc1ccc([N+](=O)[O-])cc1[N+](=O)[O-]`
> 100 µM (inactive)

Let us now turn to `O=S(=O)(Nc1ccccc1S(=O)(=O)c1ccccc1)c1ccccc1`
87.9 µM (inactive)

Let us now turn to `CCCCCCCC(=O)NS(=O)(=O)c1ccccc1`
> 100 µM (inactive)

Let us now turn to CCOCCOC(=O)C1CCC(=O)N1CN(C(C)=O)c1cc(OC)ccc1OC (centres undefined)
> 100 µM (inactive)

Let us now turn to `CCCCc1ccc(-n2sc3ncc([N+](=O)[O-])cc3c2=O)cc1`
23.3 µM (inactive)

Let us now turn to `CC(C)n1c(=O)c2nn3c(=O)n(C(C)C)c(=O)c3nn2c1=O`
> 100 µM (inactive)

This collection of values is drawn from ChEMBL document CHEMBL1201862.
